The reported numbers originate from patent US10039759B2.

Molecular target: Ba/F3-Flt3-transfected cells (Homo sapiens, UniProt P36888, cells depend on it, form not given)
Construct: BAF3-FLT3 (MIN IL3 Alamar Blue pIC50); other: minus IL3; 24 hours, Alamar Blue
Sequence (P36888 1-993): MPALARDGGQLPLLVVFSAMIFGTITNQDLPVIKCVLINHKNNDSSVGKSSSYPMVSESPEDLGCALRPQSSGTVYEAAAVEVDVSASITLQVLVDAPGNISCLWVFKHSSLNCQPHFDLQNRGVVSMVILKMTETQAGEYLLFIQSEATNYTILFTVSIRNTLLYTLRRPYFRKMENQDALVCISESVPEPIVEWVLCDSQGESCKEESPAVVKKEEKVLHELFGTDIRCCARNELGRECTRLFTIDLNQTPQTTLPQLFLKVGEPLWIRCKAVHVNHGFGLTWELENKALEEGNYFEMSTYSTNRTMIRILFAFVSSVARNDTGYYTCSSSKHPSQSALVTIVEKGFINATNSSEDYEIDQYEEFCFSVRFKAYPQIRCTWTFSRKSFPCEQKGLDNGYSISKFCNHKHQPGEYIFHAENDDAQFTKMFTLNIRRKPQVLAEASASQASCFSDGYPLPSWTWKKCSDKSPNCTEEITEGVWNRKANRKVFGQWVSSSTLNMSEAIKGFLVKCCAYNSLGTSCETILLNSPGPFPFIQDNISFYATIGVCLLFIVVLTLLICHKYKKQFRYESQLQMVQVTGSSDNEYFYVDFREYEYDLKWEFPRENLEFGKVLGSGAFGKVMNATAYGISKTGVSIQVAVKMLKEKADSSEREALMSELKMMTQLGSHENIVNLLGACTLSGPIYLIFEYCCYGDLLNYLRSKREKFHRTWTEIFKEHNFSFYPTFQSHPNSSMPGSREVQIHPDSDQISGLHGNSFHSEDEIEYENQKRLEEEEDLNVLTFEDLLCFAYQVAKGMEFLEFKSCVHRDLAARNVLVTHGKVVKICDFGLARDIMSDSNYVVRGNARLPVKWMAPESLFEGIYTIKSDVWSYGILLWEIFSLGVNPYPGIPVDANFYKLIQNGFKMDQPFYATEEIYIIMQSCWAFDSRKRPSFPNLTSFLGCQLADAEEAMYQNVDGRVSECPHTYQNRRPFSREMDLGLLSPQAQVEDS
Assay: Ba/F3-Flt3 (minus IL3 or plus IL3) cellular proliferation assay, Alamar Blue
Format: cell-based
Conditions: minus IL3, 24 hours
List of BAF3-FLT3 (MIN IL3 Alamar Blue pIC50) values.
Quantity kind: BAF3-FLT3 (MIN IL3 Alamar Blue pIC50)

Compound	Quantity kind	Meas value
COc1cc(OC)cc(N(CC#Cc2ncccc2OC)c2ccc3ncc(-c4cnn(C)c4)cc3c2)c1 [Compound 17]	BAF3-FLT3 (MIN IL3 Alamar Blue pIC50)	<5
COc1cc(OC)cc(N(CC(O)C(F)(F)F)c2ccc3ncc(-c4cnn(C)c4)cc3c2)c1 (single isomer, unassigned) [Compound 25]	BAF3-FLT3 (MIN IL3 Alamar Blue pIC50)	<5
COc1cc(OC)cc(N(Cc2nccn2S(=O)(=O)N(C)C)c2ccc3ncc(-c4ccncc4)cc3c2)c1 [Compound 58]	BAF3-FLT3 (MIN IL3 Alamar Blue pIC50)	<5
COc1cc(OC)cc(N(Cc2ncccn2)c2ccc3ncc(-c4cnn(C)c4)cc3c2)c1 [Compound 8]	BAF3-FLT3 (MIN IL3 Alamar Blue pIC50)	<5.47

====

# maps each entry to its BAF3-FGFR1 (MIN IL3 pIC50)
Target: Ba/F3-FGFR1-transfected cells (Homo sapiens, UniProt P11362, cells depend on it, form not given)
Construct: other: minus IL3; 24 hours, Alamar Blue
Sequence (P11362 whole entry, change not shown): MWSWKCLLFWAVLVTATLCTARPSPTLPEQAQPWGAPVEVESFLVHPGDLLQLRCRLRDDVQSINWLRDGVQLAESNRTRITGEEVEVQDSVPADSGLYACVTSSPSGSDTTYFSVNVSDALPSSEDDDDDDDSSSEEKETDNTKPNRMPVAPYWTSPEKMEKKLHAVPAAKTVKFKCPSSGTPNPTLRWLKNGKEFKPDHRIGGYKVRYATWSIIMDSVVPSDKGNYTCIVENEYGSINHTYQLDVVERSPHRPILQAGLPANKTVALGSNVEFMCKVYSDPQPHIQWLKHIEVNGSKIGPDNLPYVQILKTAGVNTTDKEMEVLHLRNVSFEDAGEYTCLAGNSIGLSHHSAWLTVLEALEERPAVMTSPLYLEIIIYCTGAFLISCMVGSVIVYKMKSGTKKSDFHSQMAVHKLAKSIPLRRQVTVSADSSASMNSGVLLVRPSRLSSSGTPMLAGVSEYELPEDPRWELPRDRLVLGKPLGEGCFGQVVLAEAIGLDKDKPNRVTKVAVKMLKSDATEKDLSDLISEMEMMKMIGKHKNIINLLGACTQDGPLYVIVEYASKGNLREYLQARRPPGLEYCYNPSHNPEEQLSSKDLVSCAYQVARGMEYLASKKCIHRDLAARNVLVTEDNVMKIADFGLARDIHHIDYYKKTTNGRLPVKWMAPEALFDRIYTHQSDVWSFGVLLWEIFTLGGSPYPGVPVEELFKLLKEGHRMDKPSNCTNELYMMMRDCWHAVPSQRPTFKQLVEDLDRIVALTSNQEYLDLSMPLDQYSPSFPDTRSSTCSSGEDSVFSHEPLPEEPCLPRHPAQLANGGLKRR
Experiment: Ba/F3-FGFR1 (minus IL3 or plus IL3) cellular proliferation assay, Alamar Blue
Assay type: cell-based
Settings: minus IL3, 24 hours
Quantity kind: BAF3-FGFR1 (MIN IL3 pIC50)

Compound	Quantity kind	Censoring qualifier	Meas value
COc1cc(OC)cc(N(CCCN)c2ccc3ncc(-c4cnn(C)c4)cc3c2)c1	BAF3-FGFR1 (MIN IL3 pIC50)	=	6.67
COc1cc(OC)cc(C(CCNC(C)C)c2ccc3ncc(-c4cnn(C)c4)cc3c2)c1 (centres unmarked)	BAF3-FGFR1 (MIN IL3 pIC50)	=	6.43
COc1cc(OC)cc(N(Cc2nccn2S(=O)(=O)N(C)C)c2ccc3ncc(-c4cnn(C)c4)cc3c2)c1	BAF3-FGFR1 (MIN IL3 pIC50)	=	6.14
COc1cc(OC)cc(N(Cc2ncc[nH]2)c2ccc3ncc(C4CCNCC4)cc3c2)c1 [Compound 48a]	BAF3-FGFR1 (MIN IL3 pIC50)	<	5
COc1cc(OC)cc(N(Cc2ncc[nH]2)c2ccc3ncc(C4=CCNCC4)cc3c2)c1	BAF3-FGFR1 (MIN IL3 pIC50)	=	5.89

====

Target: KDR (h) (Homo sapiens, UniProt P35968)
Sequence (P35968 20-1356): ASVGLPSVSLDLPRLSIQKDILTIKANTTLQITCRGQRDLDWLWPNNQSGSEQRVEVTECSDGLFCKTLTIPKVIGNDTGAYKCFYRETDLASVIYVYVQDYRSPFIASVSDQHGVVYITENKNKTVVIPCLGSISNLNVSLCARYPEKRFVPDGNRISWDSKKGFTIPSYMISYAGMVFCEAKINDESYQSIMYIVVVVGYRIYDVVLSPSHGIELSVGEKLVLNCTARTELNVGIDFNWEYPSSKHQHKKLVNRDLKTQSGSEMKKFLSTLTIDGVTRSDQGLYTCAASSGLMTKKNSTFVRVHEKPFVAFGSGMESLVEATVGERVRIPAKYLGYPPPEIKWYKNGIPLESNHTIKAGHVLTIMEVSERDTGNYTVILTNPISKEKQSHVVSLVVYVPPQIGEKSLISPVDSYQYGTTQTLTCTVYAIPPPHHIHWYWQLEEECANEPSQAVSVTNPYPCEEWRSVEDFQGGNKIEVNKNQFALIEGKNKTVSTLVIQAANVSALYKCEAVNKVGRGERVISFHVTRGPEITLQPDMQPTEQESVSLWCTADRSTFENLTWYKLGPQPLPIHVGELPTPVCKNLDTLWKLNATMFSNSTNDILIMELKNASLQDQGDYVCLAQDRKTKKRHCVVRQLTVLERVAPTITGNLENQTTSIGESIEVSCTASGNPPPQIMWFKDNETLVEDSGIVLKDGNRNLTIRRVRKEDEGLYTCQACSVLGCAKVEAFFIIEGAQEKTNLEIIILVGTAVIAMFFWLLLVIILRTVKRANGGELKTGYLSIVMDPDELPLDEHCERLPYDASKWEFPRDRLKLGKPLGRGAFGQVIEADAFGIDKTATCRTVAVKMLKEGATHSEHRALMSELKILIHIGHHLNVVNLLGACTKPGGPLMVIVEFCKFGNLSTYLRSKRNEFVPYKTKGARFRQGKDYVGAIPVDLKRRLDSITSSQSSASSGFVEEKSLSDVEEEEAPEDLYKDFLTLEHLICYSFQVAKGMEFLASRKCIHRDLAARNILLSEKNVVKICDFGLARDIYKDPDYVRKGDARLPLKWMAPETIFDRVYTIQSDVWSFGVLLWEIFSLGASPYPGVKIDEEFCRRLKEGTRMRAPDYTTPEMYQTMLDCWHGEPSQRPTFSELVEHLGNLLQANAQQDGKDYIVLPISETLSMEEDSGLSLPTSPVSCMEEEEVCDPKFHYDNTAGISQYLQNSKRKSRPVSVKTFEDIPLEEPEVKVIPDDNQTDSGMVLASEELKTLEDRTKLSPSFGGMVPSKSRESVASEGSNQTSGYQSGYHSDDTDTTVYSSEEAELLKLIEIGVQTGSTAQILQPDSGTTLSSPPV
Test: KDR (VEGFR2) (enzymatic assay), TR-FRET
Format: biochemical
Conditions: 3 μM ATP, 120 min; pIC50 = -log IC50 (M); average if tested multiple times; read-out: VEGFR KDR pIC50 (converted)

Molecule	Subject of test	IC50
COc1cc(OC)cc(C(CCO)c2ccc3ncc(-c4cnn(C)c4)cc3c2)c1 (centres unmarked) [Compound 34]	KDR (h) (Homo sapiens, UniProt P35968)	> 1e-06 M
COc1cc(OC)cc(C(O)c2ccc3ncc(-c4cnn(C)c4)cc3c2)c1 (centres unmarked)	KDR (h) (Homo sapiens, UniProt P35968)	> 1e-06 M
COc1cc(OC)cc(C(CC(N)=O)c2ccc3ncc(-c4cnn(C)c4)cc3c2)c1 (centres unmarked)	KDR (h) (Homo sapiens, UniProt P35968)	> 1e-06 M
COc1cc(OC)cc(N(Cc2nccn2S(=O)(=O)N(C)C)c2ccc3ncc(-c4cnn(C)c4)cc3c2)c1	KDR (h) (Homo sapiens, UniProt P35968)	1.66e-07 M
COc1cccnc1C#CCN(c1ccc2ncc(-c3cnn(C)c3)cc2c1)c1c(F)c(OC)cc(OC)c1F	KDR (h) (Homo sapiens, UniProt P35968)	3.76e-08 M
COc1cc(OC)cc(N(CC2CCN(c3nccc(OC)n3)C2)c2ccc3ncc(-c4cnn(C)c4)cc3c2)c1 (centres unmarked)	KDR (h) (Homo sapiens, UniProt P35968)	> 1e-06 M
COc1cc(OC)cc(N(CCO)c2ccc3ncc(-c4ccccc4)cc3c2)c1	KDR (h) (Homo sapiens, UniProt P35968)	> 1e-06 M
COc1cc(OC)cc(C(=O)c2ccc3ncc(-c4cnn(C)c4)cc3c2)c1	KDR (h) (Homo sapiens, UniProt P35968)	1.58e-07 M

====

Counter-ions that a name gives are not always drawn.
melting point values for the compounds below.
Quantity kind: melting point (°C)

Compound	Censoring qualifier	Meas value
COc1cc(OC)cc(C(CCO)c2ccc3ncc(-c4cnn(C)c4)cc3c2)c1 (centres unmarked) [Compound 34]	=	131
COc1cc(OC)cc(N(Cc2ncccn2)c2ccc3ncc(-c4cnn(C)c4)cc3c2)c1 [Compound 8]	=	151
COc1cc(OC)cc(/C(=C/C#N)c2ccc3ncc(-c4cnn(C)c4)cc3c2)c1 [Compound 29]	=	86
CNCCN(c1ccc2ncc(-c3cnn(C)c3)cc2c1)c1c(F)c(OC)cc(OC)c1F (as salt: HCl) [Compound 43]	=	180
COc1cc(OC)cc(N(CCCN2CCCC2=O)c2ccc3ncc(-c4cnn(C)c4)cc3c2)c1 (as salt: HCl) (hydrate or solvate) [Compound 10]	=	142
COc1cc(OC)c(F)c(N(CCNC(C)C)c2ccc3ncc(-c4cnn(C)c4)cc3c2)c1F [Compound 42]	=	75
COc1cc(OC)cc(N(CCO)c2ccc3ncc(-c4ccccc4)cc3c2)c1 [Compound 50]	=	111
C#CCN(c1ccc2ncc(-c3cnn(C)c3)cc2c1)c1cc(OC)cc(OC)c1F	=	120
COc1cc(OC)cc(C(CC#N)c2ccc3ncc(-c4cnn(C)c4)cc3c2)c1 (centres unmarked) [Compound 39]	=	172
COc1cc(OC)cc(C(CCNC(C)C)c2ccc3ncc(-c4cnn(C)c4)cc3c2)c1 (centres unmarked) (as salt: HCl) [Compound 41]	>	300
COc1cc(OC)cc(N(Cc2ncc[nH]2)c2ccc3ncc(-c4cnn(C)c4)cc3c2)c1 [Compound 18]	=	196
COc1cc(OC)cc(N(CCO)c2ccc3ncc(-c4ccn(C)c4)cc3c2)c1 [Compound 61]	=	158
COc1cc(OC)cc(N(CC#Cc2nccc(OC)n2)c2ccc3ncc(-c4cnn(C)c4)cc3c2)c1 [Compound 16]	=	203
COc1cc(OC)cc(N(CCNC(C)C)c2ccc3ncc(-c4cnn(CCS(C)(=O)=O)c4)cc3c2)c1 [Compound 14]	=	129

====

Catalogue of BAF3-FGFR3 (MIN IL3 Alamar Blue- pIC50) readings, one per entry.
Biological target: Ba/F3-FGFR3-transfected cells (Homo sapiens, UniProt P22607, cells depend on it, form not given)
Construct: BAF3-FGFR3 (MIN IL3 Alamar Blue- pIC50); other: minus IL3; 24 hours, Alamar Blue
Sequence (P22607 whole entry, change not shown): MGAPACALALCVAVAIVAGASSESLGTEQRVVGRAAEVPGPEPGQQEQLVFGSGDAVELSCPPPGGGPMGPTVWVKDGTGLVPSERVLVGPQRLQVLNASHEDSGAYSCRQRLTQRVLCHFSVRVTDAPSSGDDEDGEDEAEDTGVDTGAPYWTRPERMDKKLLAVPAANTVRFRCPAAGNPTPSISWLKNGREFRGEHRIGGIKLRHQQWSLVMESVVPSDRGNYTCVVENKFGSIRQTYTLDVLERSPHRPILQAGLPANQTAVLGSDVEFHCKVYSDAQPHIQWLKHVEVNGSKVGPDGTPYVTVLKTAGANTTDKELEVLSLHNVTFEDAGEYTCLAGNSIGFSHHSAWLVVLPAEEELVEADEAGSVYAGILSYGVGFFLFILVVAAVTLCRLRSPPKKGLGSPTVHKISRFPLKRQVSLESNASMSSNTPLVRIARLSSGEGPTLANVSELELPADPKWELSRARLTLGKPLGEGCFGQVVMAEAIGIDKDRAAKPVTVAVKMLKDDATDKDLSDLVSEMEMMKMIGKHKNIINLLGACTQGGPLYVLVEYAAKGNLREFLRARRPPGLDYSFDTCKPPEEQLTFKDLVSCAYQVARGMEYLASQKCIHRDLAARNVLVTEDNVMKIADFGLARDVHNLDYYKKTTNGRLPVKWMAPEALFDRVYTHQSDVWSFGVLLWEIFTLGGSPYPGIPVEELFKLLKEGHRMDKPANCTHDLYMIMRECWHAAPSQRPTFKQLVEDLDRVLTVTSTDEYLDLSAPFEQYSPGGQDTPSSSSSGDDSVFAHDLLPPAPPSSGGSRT
Experiment: Ba/F3-FGFR3 (minus IL3 or plus IL3) cellular proliferation assay, Alamar Blue
Format: cell-based
Conditions: minus IL3; 24 hours, Alamar Blue
Quantity kind: BAF3-FGFR3 (MIN IL3 Alamar Blue- pIC50)

Compound	Quantity kind	Meas value
COc1cc(OC)cc(N(CC#Cc2nccc(OC)n2)c2ccc3ncc(-c4cnn(C)c4)cc3c2)c1	BAF3-FGFR3 (MIN IL3 Alamar Blue- pIC50)	>8
COc1cc(OC)cc(N(CCNC(C)C)c2ccc3ncc(-c4cnn(CCS(C)(=O)=O)c4)cc3c2)c1	BAF3-FGFR3 (MIN IL3 Alamar Blue- pIC50)	~6.95
COc1cc(Nc2ccc3ncc(-c4cnn(C5CCCCO5)c4)cc3c2)cc(OC)c1 (stereo not drawn)	BAF3-FGFR3 (MIN IL3 Alamar Blue- pIC50)	~5.53
COc1cc(OC)cc(C(CC#N)c2ccc3ncc(-c4cnn(C)c4)cc3c2)c1 (stereo not drawn)	BAF3-FGFR3 (MIN IL3 Alamar Blue- pIC50)	<5
COc1cc(OC)cc(C(O)c2ccc3ncc(-c4cnn(C)c4)cc3c2)c1 (stereo not drawn)	BAF3-FGFR3 (MIN IL3 Alamar Blue- pIC50)	~5.075
CNCCN(c1ccc2ncc(-c3cnn(C)c3)cc2c1)c1c(F)c(OC)cc(OC)c1F	BAF3-FGFR3 (MIN IL3 Alamar Blue- pIC50)	~8
